Source listed as paper PMC9482650.

target: Inadl_3, Q8NI35; experiment: holdup assay; set-up: key: below the threshold = too weak to quantify, mostly under pKd 3.1 to 4; conditions: plain residues with an end cap or a label only (N-terminal biotin on a linker: ado-ado)
Sequence (Q8NI35 359-469): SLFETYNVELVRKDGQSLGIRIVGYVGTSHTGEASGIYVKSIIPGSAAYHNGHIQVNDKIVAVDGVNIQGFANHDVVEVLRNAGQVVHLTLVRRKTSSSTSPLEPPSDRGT
ENDPOINT: pKd

PGKKPEDSRV [SLCO2B1, O94956] :: below the threshold
KPDKQEEFYA [SDC3, O75056] :: below the threshold
EKPIDSETKM [SLC1A3, P43003] :: below the threshold
KLQNPNQSVV [TYRP1, P17643] :: below the threshold

Memo: EAVTVESTSL [SLC22A11, Q9NSA0] , reported pKd: below the threshold

Memo: EFKQTSSFLV [JAM1, Q9Y624] , reported pKd: 4.65

Memo: SQDPKKPSRV [CBY2, Q8NA61] , reported pKd: below the threshold

Memo: GDSSRKEYFI [GYPC, P04921] , reported pKd: 4.2
